# SYSTEM TESTED: T1, huIL2Rβγ: Human IL-2 R gamma/CD132 Protein, Fc Tag (ILG-H5256) with Human IL-2 R beta/CD122 Protein, His Tag … (human, UniProt P31785 23-254; P14784 27-239)
# T1 construct: IL-2Rγ-Fc sat on the sensor; IL-2Rβ-His was in solution at a concentration equimolar to or greater than the analyte; also called IL-2RBG; not shown: Fc tag of the bought reagent; His tag of the bought reagent
# T1 sequence (looked up) 1: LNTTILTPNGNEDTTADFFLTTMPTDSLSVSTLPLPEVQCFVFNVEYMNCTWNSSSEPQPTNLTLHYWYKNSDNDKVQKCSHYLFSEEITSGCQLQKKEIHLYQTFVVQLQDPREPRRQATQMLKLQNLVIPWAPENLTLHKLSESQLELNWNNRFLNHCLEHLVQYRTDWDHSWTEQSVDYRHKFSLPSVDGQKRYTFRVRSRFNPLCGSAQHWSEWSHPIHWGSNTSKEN
# T1 sequence (looked up) 2: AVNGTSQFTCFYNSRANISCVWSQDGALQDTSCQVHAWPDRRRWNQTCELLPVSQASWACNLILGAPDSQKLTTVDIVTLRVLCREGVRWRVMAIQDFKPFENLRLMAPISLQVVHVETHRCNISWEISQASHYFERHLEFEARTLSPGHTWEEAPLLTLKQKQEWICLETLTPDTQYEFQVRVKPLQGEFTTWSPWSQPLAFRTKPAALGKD
# ASSAY DETAILS: Octet BLI; IL-2Rγ-Fc on anti-human Fc sensors with IL-2Rβ-His in solution, 1:1 steady-state model
pKd: −log10 of the molar value.

| BINDER | pKd |
| --- | --- |
| Neo-2/15_N40A (designed binder) PKKKIQLHAEHALYDALMILNIVKTNSPPAEEKLEDYAFAFELILEEIARLFESGDQKDEAEKAKRMKEWMKRIKTTASEDEQEEMANAIITILQSWIFS | 7.36 |
| Neo-2/15_D15A (designed binder) PKKKIQLHAEHALYAALMILNIVKTNSPPAEEKLEDYAFNFELILEEIARLFESGDQKDEAEKAKRMKEWMKRIKTTASEDEQEEMANAIITILQSWIFS | 6.64 |
| Neo-2/15_Q95A (designed binder) PKKKIQLHAEHALYDALMILNIVKTNSPPAEEKLEDYAFNFELILEEIARLFESGDQKDEAEKAKRMKEWMKRIKTTASEDEQEEMANAIITILASWIFS | 6.72 |
| Neo-2/15_I44A (designed binder) PKKKIQLHAEHALYDALMILNIVKTNSPPAEEKLEDYAFNFELALEEIARLFESGDQKDEAEKAKRMKEWMKRIKTTASEDEQEEMANAIITILQSWIFS | 7.24 |
